- Format: physicochemical
- condition_summary: TGA, nitrogen 60 mL/min, heating rate 10° C./min, room temperature to 600° C.
- Protocol: A useful indicator of thermal stability is a 5% weight loss temperature, which is measured by thermogravimetric analysis as follows: ˜10 milligrams of the phosphorus-sulfur FR additive is analyzed using a TA Instruments model Hi-Res TGA 2950 or equivalent device, with a 60 milliliters per minute (mL/min) flow of gaseous nitrogen and a heating rate of 10° C./min over a range of from room temperature (nominally 25° C.) to 600° C. […]
readout_name: 5% WLT

I am curious: what 5% WLT value has been reported for CC1(C)COP(=S)(SCCC(=O)NCNC(=O)CCSP2(=S)OCC(C)(C)CO2)OC1 [Example 36] ?
220 °C

Field entry: S=P1(CC(c2ccccc2)c2ccccc2)OCC2(CO1)COP(=S)(SC(c1ccccc1)c1ccccc1)OC2 (stereo not shown) [Example 38]
240 °C

Now give it for CC1(C)COP(=S)(SC2CC3CC2CC3SP2(=S)OCC(C)(C)CO2)OC1 (stereo not shown) [Example 21] too.
264 °C

Would you kindly repeat that for Cc1c(CSP2(=O)Oc3ccccc3-c3ccccc32)c(C)c(CSP2(=O)Oc3ccccc3-c3ccccc32)c(C)c1CSP1(=O)Oc2ccccc2-c2ccccc21 (stereo not shown) [Example 30] ?
219 °C

Further, for CC1(C)COP(=S)(SC(c2ccccc2)c2ccccc2)OC1 [Example 25] ?
238 °C

Next compound: CC1(C)COP(=S)(SCP(=O)(CSP2(=S)OCC(C)(C)CO2)CSP2(=S)OCC(C)(C)CO2)OC1 [Example 16]
243 °C

Cool, now CC1(C)COP(=S)(SCCCCSP2(=S)OCC(C)(C)CO2)OC1 [Example 20]
244 °C

Ok, now CC1(C)COP(=S)(Sc2nc(SP3(=S)OCC(C)(C)CO3)nc(SP3(=S)OCC(C)(C)CO3)n2)OC1 [Example 17]
249 °C

Now this one: CC1(C)COP(=S)(SC/C=C/CSP2(=S)OCC(C)(C)CO2)OC1 [Example 1]
241 °C

Now consider O=P1(SCc2ccccc2CSP2(=O)Oc3ccccc3-c3ccccc32)Oc2ccccc2-c2ccccc21 (stereo not shown) [Example 29] and answer again.
262 °C

Next compound up: CC(COCC(COCC(C)SP1(=S)OCC(C)(C)CO1)(COCC(C)SP1(=S)OCC(C)(C)CO1)COCC(C)SP1(=S)OCC(C)(C)CO1)SP1(=S)OCC(C)(C)CO1 (stereo not shown) [Example 31]
241 °C

Similarly, O=P1(SC/C=C/CSP2(=O)Oc3ccccc3-c3ccccc32)Oc2ccccc2-c2ccccc21 (stereo not shown) [Example 26] ?
270 °C

Item: CC1(C)COP(=S)(N(Cc2ccccc2)P2(=S)OCC(C)(C)CO2)OC1 [Example 18]
202 °C

Also CC(CCCCCCC(C)SP1(=S)OCC(C)(C)CO1)SP1(=S)OCC(C)(C)CO1 (stereo not shown) [Example 24] , if possible.
239 °C

And CC1(C)COP(=S)(Cc2ccccc2CP2(=S)OCC(C)(C)CO2)OC1 [Example 19] ?
284 °C

Please answer likewise for CC1(C)COP(=S)(SCc2ccccc2CSP2(=S)OCC(C)(C)CO2)OC1 [Example 4]
240 °C

Now try CC1(C)COP(=S)(SC(c2ccccc2)c2cccc(C(SP3(=S)OCC(C)(C)CO3)c3ccccc3)c2)OC1 (stereo not shown) [Example 37] .
259 °C

Okay, and CCOC(=O)CC(SP1(=S)OCC(C)(C)CO1)C(=O)OCC (stereo not shown) [Example 23] ?
218 °C

Lookup CC1(C)COP(=O)(SCc2ccccc2CSP2(=O)OCC(C)(C)CO2)OC1 [Example 5]
247 °C

And the next one, CC1(C)COP(=S)(SCc2c(CSP3(=S)OCC(C)(C)CO3)c(CSP3(=S)OCC(C)(C)CO3)c(CSP3(=S)OCC(C)(C)CO3)c(CSP3(=S)OCC(C)(C)CO3)c2CSP2(=S)OCC(C)(C)CO2)OC1 [Example 33] ?
262 °C

Okay, and CC1(C)COP(=O)(Cc2ccc(CSP3(=S)OCC(C)(C)CO3)cc2)OC1 [Example 28] ?
257 °C

Then this compound: Cc1c(CSP2(=S)OCC(C)(C)CO2)c(C)c(CSP2(=S)OCC(C)(C)CO2)c(C)c1CSP1(=S)OCC(C)(C)CO1 [Example 8]
283 °C
